- System: HOP-92 NSCLC
- assayOverview: NCI tumour cell line growth inhibition, 48 h
Please respond with reported log10 TGI for every item in the list.
Log10 applied to TGI; unit prior to transform: µM.

| molecule | log10 TGI |
| --- | --- |
| CC(C)(C)O/N=C/c1cc(NC(=S)c2ccsc2)ccc1Cl | 1.58 |

Batch request: log10 TGI per item, same order as input.
1. O=[N+]([O-])c1ccc(N=Nc2c(O)[nH]c3ccccc23)c([N+](=O)[O-])c1
2. Nn1c(-c2ccc(Cl)cc2)nc2c(-c3ccc(Cl)cc3)nc3ccc(Cl)cc3c2c1=O
3. CCOC1Oc2ccc(C)cc2C(=O)/C1=C\Nc1ccc(S(N)(=O)=O)cc1 (centres undefined)
4. COCC(C(=O)OC1C/C=C/C=C/C(=O)OC(C(C)C(O)C(C)CCC(OC(=O)C(C)N(C)C)C(C)C(OC(C)=O)C(C)/C=C/N(C)C=O)C/C=C/C(OC)CC(C)C/C=C(\C)C(OC)CCC(C)C(O)C1C)N(C)C (centres undefined)

result:
1: 1.10; 2: 1.50; 3: 1.47; 4: -1.62

Batch request: log10 TGI per item, same order as input.
1. O=C1NC(N/N=C\c2ccccc2)=N/C1=C/c1ccccc1
2. CC1(C)OC[C@@H]([C@@]2(COC(c3ccccc3)(c3ccccc3)c3ccccc3)CC=CC(=O)O2)O1

result:
1.82
1.96
